So I've got a bunch of compounds here, and I need their parasite load remaining values.
experiment: P. berghei load reduction in hepatocytes – cell-based, HepG2, luciferase luminescence, HepG2 viability, primary screen (AID 624349);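 also: 100% = mean of DMSO negative control wells on the same plate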
experimental_conditions: P. berghei liver stage in HepG2, luciferase luminescence, concentration not given here; stronger effect = lower value
Enter your answer as a number in %; do not include the unit.

Recorded parasite load remaining (compound "C1CCN2C[C@H]3C[C@@H](CN4CCCC[C@@H]34)[C@H]2C1" ): 73.9

Recorded parasite load remaining (compound O=C(O)C1(O)C[C@H](O)C(O)[C@@H](O)C1 (stereo not given in full) ): 88.4

Recorded parasite load remaining (compound CCOC1O[C@H]([C@@H](COCc2ccccc2)OCc2ccccc2)[C@H](OCc2ccccc2)[C@H]1O (stereo not given in full) ): 66.9

Recorded parasite load remaining (compound O=c1[nH]c(=O)n([C@H]2CC(O)[C@@H](CO)O2)cc1I (stereo not given in full) ): 130

Recorded parasite load remaining (compound Oc1cc(O)c2c(c1)OC(c1ccc(O)c(O)c1)C(O)C2 (stereo not given) ): 64.2

Recorded parasite load remaining (compound "Cc1cc(C=Cc2ccc3cc(N(C)C)ccc3[n+]2C)c(C)n1-c1ccccc1" ): 0.11

Recorded parasite load remaining (compound "CC(C)=CCC/C(C)=C/CC1=C(C)C(=O)c2ccccc2C1=O" ): 76.4

Recorded parasite load remaining (compound COc1cc(OC)c2c(c1Cl)O[C@]1(C2=O)C(OC)CC(=O)C[C@H]1C (stereo not given in full) ): 83.9

Recorded parasite load remaining (compound "CCSc1ccc2c(c1)N(CCCN1CCN(C)CC1)c1ccccc1S2" ): 77.3

Recorded parasite load remaining (compound "CC(C)(C)c1ccc(S(=O)(=O)Nc2ccc(-n3ccnc3)cc2)cc1" ): 37.4
